# tgt: KOR (Homo sapiens, UniProt P41145)
# Sequence (P41145 whole entry): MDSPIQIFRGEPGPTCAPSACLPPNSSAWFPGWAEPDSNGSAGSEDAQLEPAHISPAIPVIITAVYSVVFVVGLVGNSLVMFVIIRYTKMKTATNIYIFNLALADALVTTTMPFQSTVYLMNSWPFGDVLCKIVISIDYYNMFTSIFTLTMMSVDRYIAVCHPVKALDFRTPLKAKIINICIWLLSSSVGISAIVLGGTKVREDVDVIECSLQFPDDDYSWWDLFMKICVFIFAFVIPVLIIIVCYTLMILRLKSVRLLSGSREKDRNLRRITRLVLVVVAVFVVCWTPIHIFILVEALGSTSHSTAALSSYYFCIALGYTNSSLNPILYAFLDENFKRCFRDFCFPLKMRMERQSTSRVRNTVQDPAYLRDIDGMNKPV
# test.summary: cell-based
# test.settings: pEC50 ± SEM
Peptide text beside a SMILES is read from it.
parameter.measured: EC50 (nM)

INSERT INTO results (molecule, parameter_measured, result_number) VALUES
  ('CSCC[C@H](NC(=O)[C@H](Cc1ccccc1)NC(=O)CNC(=O)CNC(=O)[C@@H](N)Cc1ccc(O)cc1)C(=O)N[C@@H](CCCNC(=N)N)C(=O)N[C@@H](CCCNC(=N)N)C(=O)N[C@H](C(=O)NCC(=O)N[C@@H](CCCNC(=N)N)C(=O)N1CCC[C@H]1C(=O)N[C@@H](CCC(=O)O)C(=O)N[C@@H](Cc1c[nH]c2ccccc12)C(=O)N[C@@H](Cc1c[nH]c2ccccc12)C(=O)N[C@@H](CCSC)C(=O)N[C@@H](CC(=O)O)C(=O)N[C@@H](Cc1ccc(O)cc1)C(=O)N[C@@H](CCC(N)=O)C(=O)O)C(C)C [BAM 18] (H-YGGFMRRVGRPEWWMDYQ-OH)', 'EC50', 85.1),
  ('CSCC[C@H](NC(=O)[C@H](Cc1ccccc1)NC(=O)CNC(=O)CNC(=O)[C@@H](N)Cc1ccc(O)cc1)C(=O)N[C@@H](CCCNC(=N)N)C(=O)N[C@@H](CCCNC(=N)N)C(=O)N[C@H](C(N)=O)C(C)C [Metorphamide]', 'EC50', 102),
  ('CC[C@H](C)[C@H](NC(=O)[C@H](CCCNC(=N)N)NC(=O)[C@H](CCCNC(=N)N)NC(=O)[C@H](CC(C)C)NC(=O)[C@H](Cc1ccccc1)NC(=O)CNC(=O)CNC(=O)[C@@H](N)Cc1ccc(O)cc1)C(=O)N[C@@H](CCCNC(=N)N)C(=O)N1CCC[C@H]1C(=O)N[C@@H](CCCCN)C(=O)N[C@@H](CC(C)C)C(=O)N[C@@H](CCCCN)C(=O)O [Dynorphin A(1-13)]', 'EC50', 19.5);

Origin of measurements: paper PMC4441592
